Data origin: PubChem BioAssay (NCI)

Reported growth inhibition values are given for each entry in this list.
experiment: NCI Yeast Anticancer Drug Screen. Data for the rad50EPP+ strain (AID 151);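 also: 0% = growth of vehicle-treated control cultures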; details: S. cerevisiae rad50 mutant strain, at 3.7 µM, stronger effect = higher value
Compounds without any hit were thinned out: in the full panel of roughly 79,000, 15% have a hit.
Metric: growth inhibition (%)

1) CCO/C=C1\SC(=S)N(c2ccc(OCC)cc2)C1=O ... -21
2) CC/C(=C(\c1ccccc1)c1ccc(OCC[N+](C)(C)C)cc1)c1ccccc1 ... 18
3) CCCCCCCN1C(=O)c2ccccc2C1=O ... -1
4) O=S1(=O)CCC2=CC(C(F)(F)F)=CC(C(F)(F)F)=CN21 ... 16
5) COc1ccc(/C=C2\SC(=S)N(/C=C3\C(=O)N(c4ccccc4)N=C3C)C2=O)cc1OC ... 6
6) COc1ccc(N=c2cc(-c3ccccc3)oc3ccccc23)cc1 ... -3
7) CC(C)Cc1ncc(CCCN=C(N)N)[nH]c1=O ... -13
8) Clc1nc(Cl)nc(Nc2cccc3ccccc23)n1 ... 50
9) O=C1C2=C(c3ccccc31)C(c1ccccc1)N1C(=O)CSC1=N2 (stereo unspecified) ... 2
10) O=C1CC(C(O)(C(F)(F)F)C(F)(F)Cl)CCC1C(O)(C(F)(F)F)C(F)(F)Cl (stereo unspecified) ... 24
11) O=C(C(Cl)=C(N1CCCCC1)N1CCCCC1)C(Cl)Cl ... 1

----------
assay: NCI Yeast Anticancer Drug Screen. Data for the mlh1 strain (AID 171);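 also: 0% = growth of vehicle-treated control cultures of the same strain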; details: S. cerevisiae mlh1 strain growth inhibition; at 33.0 µM; stronger effect = higher value
The panel holds about 79,000 compounds, 15% with a hit somewhere; the sample as a whole holds those more often.
Metric: growth inhibition (%)

1. CSc1nc(-c2ccccc2)nc(=[N+]2CCOCC2)s1 ... 76
2. NC(CS)C(=O)NCCNc1ccc(NCCNC(=O)C(N)CS)c2c1C(=O)c1c(O)ccc(O)c1C2=O (stereo not given) ... 85
3. CC1C(c2ccccc2)SC(=N)N1C (stereo not given) ... -1
4. O=C(NOC(=O)c1ccc([N+](=O)[O-])cc1)c1ccc(Cl)cc1 ... 89
5. CC(C)=CCc1c2c(c(O)c3c(=O)c(-c4ccc(O)c(O)c4)coc13)C=CC(C)(C)O2 ... 93
6. Fc1ccc(Nc2ccc3ccccc3c2)cc1 ... 44
7. CCC(C)COC(=O)Nc1cccc(Cl)c1 (stereo not given) ... 57
8. C[N+](C)([O-])CCCNc1c2ccccc2nc2cccc([N+](=O)[O-])c12 ... 89
9. O=c1[nH]c2c([N+](=O)[O-])cccc2c2ccccc12 ... 18
10. Cc1ccc(S(=O)(=O)N/N=C/C(Br)=C(/Br)C(=O)O)cc1 ... 98
11. COC1=CCC23C(=O)C=CC(=O)C2(C1)C(=O)c1ccccc1C3=O (stereo not given) ... 54
12. COc1ccc(C(OCC2OC(n3cnc4c(=O)n(Cc5ccccc5[N+](=O)[O-])nnc43)C(O)C2O)(c2ccccc2)c2ccc(OC)cc2)cc1 (stereo not given) ... 3
13. NCCOc1ccc(/C(=C(/Cl)c2ccccc2)c2ccccc2)cc1 ... 99
14. CC(=O)/C=C/c1cc([N+](=O)[O-])ccc1O ... 98
15. O=S(=O)(NC1CCCC(c2ccccc2)C1)c1ccccc1 (stereo not given) ... 3
16. CN1C(=O)C(CC(=O)O)NC1=S (stereo not given) ... 11
17. CC1(C2CC2)C(C#N)(C#N)C1(C#N)C#N ... 31
18. COc1ccc(-c2cc(-c3cc(C)cc(Cl)c3O)nc3[nH]c(=S)[nH]c(=S)c23)cc1 ... 10
19. Cc1cccc2c1C1c3c(C)cccc3C(CC(=O)O)CC1CC2 (stereo not given) ... 97
20. CC(C)(N=Nc1ccc(Cl)cc1)[N+](=O)[O-] ... 98
21. CC1=NN(C(=O)CC(=O)NC(=O)/C=C\c2ccccc2)C(=O)C1N=Nc1ccc([N+](=O)[O-])cc1 (stereo not given) ... 68
22. Nc1cc2ccccc2cc1N ... -11
23. N#CC1OB(O)c2ccccc21 (stereo not given) ... -6
24. OC(c1ccccc1)(c1ccccc1)c1nccc2ccccc12 ... 14
25. O=C1C2=C(c3ccccc31)C(c1ccccc1)N1C(=O)CSC1=N2 (stereo not given) ... 32
26. CCCCCCCCCC(=O)N(CCC)CCC ... 41
27. O=C(O)C1CCCCC1c1c2ccc(=O)cc-2oc2cc(O)ccc12 (stereo not given) ... -1
28. CC/C(=C(\c1ccccc1)c1ccc(OCC[N+](C)(C)C)cc1)c1ccccc1 ... 99
29. CC1(C)CC(=O)C(/C=N/c2nc(-c3ccc(Br)cc3)cs2)=C(O)C1 ... 96
30. CCCCS(=O)(=O)Nc1ccc(Nc2c3ccccc3nc3ccccc23)c(OC)c1 ... 73
31. COC(=O)C1=C(C(=O)OC)CC(n2nnc(C(=O)OC)c2C(=O)OC)=CC1 ... -1
32. CC12CCC(CC(=O)/C1=C(/Br)I)C2(C)C (stereo not given) ... 3
33. CCN1CCC(O)(c2ccc(Oc3ccc(C)cc3)cc2)C(C(=O)c2ccc(Oc3ccc(C)cc3)cc2)C1 (stereo not given) ... 97
34. CC1=CC(=C(c2ccc(N)c(C)c2)c2ccc(N)c(C)c2)C=CC1=N ... 55
35. COc1ccc2cc3c4cc5c(cc4cc[n+]3cc2c1OC)OCO5 ... 87
36. CCN1CCC(O)(c2ccc(Oc3ccc(Cl)cc3)cc2)C(C(=O)c2ccc(Oc3ccc(Cl)cc3)cc2)C1 (stereo not given) ... -4
37. O=C(NNc1ccccc1)C(CCCCNS(=O)(=O)Cc1ccccc1)NS(=O)(=O)Cc1ccccc1 (stereo not given) ... 32
38. CCC(=O)Nc1ccc(N=NN(C)C)cc1 ... 19
39. Nc1ccc(/C=C/c2ccc3cccnc3c2)cc1 ... -2
40. CCCCCCCCSC1=C(Cl)C(=O)C(OC)=C(OC)C1=O ... 27
41. O=[N+]([O-])c1ccc2nc(=S)[nH]n2c1 ... -2
42. O=[N+]([O-])/C=C/c1cc2ccc3ccccc3c2[nH]1 ... 93
43. CCN(CC)CCNc1ccc2ncn3c4ccc(O)cc4c(=O)c1c23 ... -5
44. CCCCN(CCC#N)c1ccc(/C=C/c2ccnc3ccccc23)cc1 ... 55
45. CN(N=O)C(=O)Nc1ccc(C(=O)O)cc1 ... -21
